Target: Peroxisome proliferator-activated receptor gamma (Homo sapiens)
Experiment: ATG_PPARg_TRANS: Attagene TRANS-FACTORIAL HepG2 Assay for human Peroxisome Proliferator-activated Receptor-gamma (PPARg) (AID 2283007)
Results filed as inconclusive are left out. Activity calls are given as the source filed them. How the source made its calls: active means hit-call score of the fitted dose curve at least 0.9, where 1 is the maximum; inconclusive means response in the unintended direction; inactive means score below 0.9.
Would you mind answering with one of these outcomes? active, inactive

// below: answered compounds
| Compound | Answer Label |
| --- | --- |
| CC(C)N(C(=O)CCl)c1ccccc1 | active |
| OC(Cc1ccccc1Cl)(Cn1[nH]cnc1=S)C1(Cl)CC1 (centres undefined) | active |
| C=CCN=C=S | inactive |

q: For `CC(c1ccc(O)cc1)c1ccc(O)cc1` , what call appears in the results of this test?
a: inactive

q: What call does the record list for `Brc1c(Br)c(Br)c(Oc2c(Br)c(Br)c(Br)c(Br)c2Br)c(Br)c1Br` ?
a: inactive

q: Entry `CN(N=O)c1ccc([N+](=O)[O-])cc1` : call = ?
a: active

====

Assay: ATG_MRE_CIS: Attagene CIS-FACTORIAL HepG2 Assay for human Metal Responsive Element (MRE) (AID 2282954)
Conditions: HepG2 MRE cis-reporter transcription, Attagene multiplex; actives raise or lower the signal
Active and inactive are the calls of the source. How the source made its calls: active means hit-call score of the fitted dose curve at least 0.9, where 1 is the maximum; inactive means score below 0.9.
# valid calls are active, inactive; nothing else

q: What did the test return for `CC(C)[N+](=O)[O-]` ?
a: inactive

q: # outcome recorded in this test, key = `CNC(=O)N(C)c1nc2ccccc2s1`
a: inactive

q: Please indicate how the test categorized `CCCCCCCCCCCCBr` .
a: inactive

q: Given `CN(N=O)c1ccc([N+](=O)[O-])cc1` , state the outcome it received in this test.
a: inactive

q: Given `O=C(O)COc1ccc(Cl)cc1` , state the outcome it received in this test.
a: inactive

q: Which outcome did this test record for the molecule `CCCCN(CCCC)C(=S)S` ?
a: active

q: Look up the recorded call for `O=[N+]([O-])c1cc([As](=O)(O)O)ccc1O` in this test.
a: inactive

====

Target: Estrogen receptor (Homo sapiens) + Estrogen receptor beta (Homo sapiens) (UniProt P03372+Q92731)
Sequence (P03372 whole entry, looked up): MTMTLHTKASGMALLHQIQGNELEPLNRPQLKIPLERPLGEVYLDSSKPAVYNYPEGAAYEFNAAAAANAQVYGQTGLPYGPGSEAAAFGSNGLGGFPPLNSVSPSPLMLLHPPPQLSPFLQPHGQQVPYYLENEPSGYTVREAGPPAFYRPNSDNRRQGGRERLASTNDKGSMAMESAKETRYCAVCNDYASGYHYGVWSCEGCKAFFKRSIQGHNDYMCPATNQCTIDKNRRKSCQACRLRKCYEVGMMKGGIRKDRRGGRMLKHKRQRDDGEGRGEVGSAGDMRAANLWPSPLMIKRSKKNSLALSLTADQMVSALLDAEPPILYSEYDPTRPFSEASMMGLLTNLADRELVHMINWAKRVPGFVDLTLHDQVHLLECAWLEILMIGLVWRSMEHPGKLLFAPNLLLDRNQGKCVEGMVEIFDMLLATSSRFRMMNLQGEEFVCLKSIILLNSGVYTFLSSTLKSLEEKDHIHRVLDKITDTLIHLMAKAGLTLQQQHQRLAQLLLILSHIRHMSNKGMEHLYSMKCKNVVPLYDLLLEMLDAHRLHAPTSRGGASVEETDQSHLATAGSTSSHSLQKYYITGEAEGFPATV
Sequence (Q92731 whole entry, looked up): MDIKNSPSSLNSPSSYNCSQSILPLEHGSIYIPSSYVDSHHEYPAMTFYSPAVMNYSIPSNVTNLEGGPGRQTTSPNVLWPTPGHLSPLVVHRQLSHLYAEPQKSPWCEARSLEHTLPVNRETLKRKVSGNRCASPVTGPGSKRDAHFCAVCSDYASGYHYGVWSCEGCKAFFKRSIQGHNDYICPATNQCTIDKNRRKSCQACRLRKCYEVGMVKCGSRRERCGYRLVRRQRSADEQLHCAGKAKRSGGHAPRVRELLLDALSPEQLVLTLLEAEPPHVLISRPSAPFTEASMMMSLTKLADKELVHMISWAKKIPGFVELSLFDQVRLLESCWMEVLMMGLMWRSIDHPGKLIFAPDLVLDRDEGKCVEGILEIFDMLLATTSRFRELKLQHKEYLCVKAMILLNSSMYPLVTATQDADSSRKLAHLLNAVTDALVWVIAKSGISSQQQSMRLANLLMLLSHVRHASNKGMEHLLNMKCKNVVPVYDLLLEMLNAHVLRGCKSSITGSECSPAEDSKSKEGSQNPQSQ
Assay: OT_ER_ERaERb_0480: Odyssey Thera (OT) 8-hour HEK293T Protein-Complementation Assay for Estrogen Receptor-alpha/-beta Heterodimer (AID 2283352)
Procedure: OT_ER_ERaERb_0480 is a cell-based assay that uses HEK293T, a human kidney cell line, with measurements taken at 8 hours after chemical dosing in a 384-well plate.OT_ER_ERaERb_0480 is one of one assay component(s) measured or calculated from the OT_ER_ERaERb_0480 assay. […] This assay endpoint, OT_ER_ERaERb_0480, was analyzed in the positive analysis fitting direction relative to DMSO as the negative control and baseline of activity. […]
Results filed as inconclusive are left out. Calls of active or inactive are those of the source. The calls were made as follows: active = hit-call score of the fitted dose curve at least 0.9, where 1 is the maximum; inconclusive = response in the unintended direction; inactive = score below 0.9.
Mark one answer only. Choices: 1 = active, 0 = inactive

Consider the following illustrative entries.
| Molecule | Answer Label |
| --- | --- |
| CCCSP(=S)(OCC)Oc1ccc(SC)cc1 (stereo not drawn) | 1 |
| N#CCC#N | 0 |
| CCOCn1c(-c2ccc(Cl)cc2)c(C#N)c(Br)c1C(F)(F)F | 1 |
| CNC(=O)O/N=C/C(C)(C)S(C)(=O)=O | 0 |

q: Dear all, I need the recorded test outcome for `O=C(O)COc1ccc(Cl)cc1` , thank you.
a: 0

q: Answer briefly: the call reported for `CC(C)N(C(=O)CCl)c1ccccc1` in this assay.
a: 0

q: Could you kindly confirm the outcome this assay logged for CC(C)=CC1C(C(=O)OCc2cccc(Oc3ccccc3)c2)C1(C)C (stereo not drawn) ?
a: 0

q: Lab log entry: `O=CCCl` — outcome as called in the assay?
a: 0
